assay: Bioavailability in cynomolgus monkey; assay type: ADME, organism-based, Macaca fascicularis; conditions: in vivo
readout kind: bioavailability
Record the result as a number with its unit.

In: Supply recorded bioavailability for `CO[C@@H](Cc1ccc(OCCc2nc(-c3ccccc3)oc2C)c2ccsc12)C(=O)O` here.
Out: 68%

----------
assay: Bioavailability in rat; type: ADME, organism-based; conditions: in vivo
readout kind: bioavailability (%)
Respond with the bare value in %.

In: State its bioavailability for this compound: `CO[C@@H](Cc1ccc(OCCc2nc(-c3ccccc3)oc2C)c2ccsc12)C(=O)O`
Out: 70

----------
assay: Half life in cynomolgus monkey; format: ADME, organism-based, Macaca fascicularis; details: in vivo
readout kind: half-life (h)
The response must be a number in h with no trailing unit.

In: Identify measured half-life corresponding to `CO[C@@H](Cc1ccc(OCCc2nc(-c3ccccc3)oc2C)c2ccsc12)C(=O)O`
Out: 12.9

----------
Target: Peroxisome proliferator-activated receptor alpha (Homo sapiens, UniProt Q07869)
Sequence (Q07869 whole entry): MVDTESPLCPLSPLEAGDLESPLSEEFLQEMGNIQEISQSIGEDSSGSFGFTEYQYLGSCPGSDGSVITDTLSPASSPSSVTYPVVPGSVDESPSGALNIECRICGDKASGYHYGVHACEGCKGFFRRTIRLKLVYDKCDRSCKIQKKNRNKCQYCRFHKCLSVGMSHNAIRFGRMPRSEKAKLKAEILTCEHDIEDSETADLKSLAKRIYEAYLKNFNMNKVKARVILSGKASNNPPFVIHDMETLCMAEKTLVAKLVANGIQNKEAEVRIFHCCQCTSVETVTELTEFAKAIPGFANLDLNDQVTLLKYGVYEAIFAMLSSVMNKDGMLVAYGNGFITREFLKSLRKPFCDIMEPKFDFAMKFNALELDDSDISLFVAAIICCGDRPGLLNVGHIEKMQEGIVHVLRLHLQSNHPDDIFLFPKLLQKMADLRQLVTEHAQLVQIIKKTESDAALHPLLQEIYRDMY
Would you kindly list EC50 for each of these compounds?
Dear colleague, please return just the value in nM, with no unit written.

In: # return EC50 of `COc1cc(OC)cc(-c2nc(CCOc3ccc(C[C@H](OC)C(=O)O)c4sccc34)c(C)o2)c1` (system: Peroxisome proliferator-activated receptor alpha (Homo sapiens, UniProt Q07869))
Out: 61

In: Return reported EC50 for target or system Peroxisome proliferator-activated receptor alpha (Homo sapiens, UniProt Q07869), item CCCOC(Cc1ccc(OCCc2nc(-c3ccccc3)oc2C)c2ccccc12)C(=O)O (racemic) .
Out: 87

In: Enter recorded EC50 with Peroxisome proliferator-activated receptor alpha (Homo sapiens, UniProt Q07869) for COC(Cc1ccc(OCCc2nc(-c3ccccc3C)oc2C)c2ccccc12)C(=O)O (racemic) here.
Out: 123
